# TARGET DESC: human CB2 (Homo sapiens, UniProt P34972)
# Construct: expressed in transfected cells; host or cells: CHO (Chinese Hamster Ovary) cells
# Sequence (P34972 whole entry): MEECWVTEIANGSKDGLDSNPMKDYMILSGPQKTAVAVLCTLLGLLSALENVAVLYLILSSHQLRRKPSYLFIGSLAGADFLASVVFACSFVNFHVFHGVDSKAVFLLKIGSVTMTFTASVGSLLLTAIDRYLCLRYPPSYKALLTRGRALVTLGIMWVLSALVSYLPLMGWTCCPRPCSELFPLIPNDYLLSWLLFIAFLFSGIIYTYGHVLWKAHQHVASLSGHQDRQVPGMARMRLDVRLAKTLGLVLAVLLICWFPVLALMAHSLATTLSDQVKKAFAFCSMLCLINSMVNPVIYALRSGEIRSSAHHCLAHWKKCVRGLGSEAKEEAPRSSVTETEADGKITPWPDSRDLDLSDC
# EXPERIMENT: Cyclic AMP assay (HTRF) in CHO cells expressing human CB2
# Assay type: cell-based
# CONDITION CONTEXT: CHO cells expressing human CB2; forskolin-stimulated cAMP, IBMX 200 μM; read-out: CB2 IC50
pIC50: −log10 of the molar value.
OBSERVATION TYPE: pIC50

[I] c1ccc2[nH]c(-c3nc(CN4CCOCC4)c4ccccn34)nc2c1 [Example I-1]
[II] FC1(F)CCN(Cc2nc(-c3ccc(-c4ccn[nH]4)cc3)n3ccccc23)CC1 [IV-4]
So which one has the bigger pIC50 here, I or II ? Please identify the chosen entry by its label.
II
(II: 6.94, I: 5.90)

[a] Fc1ccc(-c2c[nH]c(-c3nc(CN4CCC(F)(F)CC4)c4ccccn34)n2)cc1F [II-4]
[b] Fc1ccc(-c2cc(-c3nc(CN4CCOCC4)c4ccccn34)[nH]n2)cc1 [Example III-1]
From the items above, decide which of a and b has the lower pIC50 reading. Use the label to indicate which entry you chose.
b
(b: 6.21, a: 6.77)

###

# TARGET DESC: human CB2 (Homo sapiens)
# Construct: expressed in transfected cells; host or cells: CHO (Chinese Hamster Ovary) cells
# EXPERIMENT: Cyclic AMP assay (HTRF) in CHO cells expressing human CB2
# Format: cell-based
# CONDITION CONTEXT: CHO cells expressing human CB2; forskolin-stimulated cAMP, IBMX 200 μM; read-out: CB2 IC50
# Protocol: Chinese Hamster Ovary cells (CHO) expressing human CB1 or human CB2 (3.3×10^5 cells/ml) were preincubated for 15 min at room temperature with tested agonist and 3-isobutyl-1-methylxanthine (IBMX; 200 μM) in phosphate buffered saline containing 1 mg/ml BSA (assay buffer) followed by 30 min incubation with forskolin in a total volume of 10 μl. […]
OBSERVATION TYPE: IC50 (nM)

Consider the reported IC50 for these compounds:
FC1(F)CCN(Cc2nc(-c3nc(-c4ccc(Cl)cc4Cl)c[nH]3)n3ccccc23)CC1 [II-3] ... 146
FC1(F)CCN(Cc2nc(-c3nc(-c4cccc(C(F)(F)F)c4)c[nH]3)n3ccccc23)CC1 [II-5] ... 165

[A] FC1(F)CCN(Cc2nc(-c3nc(-c4ccc(Cl)cc4)c[nH]3)n3ccccc23)CC1 [II-2]
[B] FC1(F)CCN(Cc2nc(-c3cccc(-n4cccn4)c3)n3ccccc23)CC1 [IV-7]
Which of the two gives a bigger number for IC50: A or B ? Label of pick, please.
A
(A: 199 nM, B: 113 nM)

###

As shown below, each of these compounds has a reported IC50 value.
# TARGET DESC: human CB2 (Homo sapiens, UniProt P34972)
# Construct: expressed in transfected cells; host or cells: CHO (Chinese Hamster Ovary) cells
# EXPERIMENT: Cyclic AMP assay (HTRF) in CHO cells expressing human CB2
# Type: cell-based
Give your result in nM as a bare value.

# annotated cases, reported IC50 shown
CC(C)(O)CCc1ccc(-c2nc(CN3CCC(F)(F)CC3)c3ccccn23)cc1 [IV-6] ... 1350
FC1(F)CCN(Cc2nc(-c3nc(-c4ccccc4)c[nH]3)n3ccccc23)CC1 [Example II-1] ... 178

Then there is this compound:
# query: IC50 of entry FC1(F)CCN(Cc2nc(-c3cccc(C(F)(F)F)c3)n3ccccc23)CC1 [Example IV-1]
17
